# ASSAY COMMENT: Inhibition of interleukin-23 binding to rat interleukin-23 receptor incubated for 2 hrs by competitive binding ELISA
pIC50: −log10 of the molar value.

# SMILES STR, pIC50
records = [
    ("CC(=O)N[C@H](C(=O)N[C@@H](CCCNC(=N)N)C(=O)N[C@H](C(=O)N[C@@H](Cc1c[nH]c2ccccc12)C(=O)N[C@@H](CCC(N)=O)C(=O)N[C@H](C(=O)N[C@@H](Cc1ccc(O)cc1)C(=O)N[C@@H](Cc1c[nH]c2ccccc12)C(=O)N[C@@H](CCCNC(=N)N)C(=O)N[C@@H](CCCCN)C(=O)N[C@@H](Cc1ccccc1)C(=O)NCC(=O)NCCOCC(=O)N[C@H](CCCCN)C(N)=O)C(C)(C)S)[C@@H](C)O)C(C)(C)S", "6.00 to 7.00"),
    ("COc1ccc(C[C@H](NC(=O)[C@@H](NC(=O)[C@H](CCC(N)=O)NC(=O)[C@H](Cc2c[nH]c3ccccc23)NC(=O)[C@@H](NC(=O)[C@H](CCC(N)=O)NC(=O)[C@@H](NC(C)=O)C(C)(C)S)[C@@H](C)O)C(C)(C)S)C(=O)N[C@@H](Cc2ccc3ccccc3c2)C(=O)N[C@@](C)(CCCCN)C(=O)N[C@@H](CCC(=O)O)C(=O)N[C@@H](CC(N)=O)C(=O)NCC(N)=O)cc1", "6.00 to 7.00"),
    ("CC(=O)N[C@H]1CCSC[C@@H](C(=O)N[C@@H](Cc2ccc(O)cc2)C(=O)N[C@@H](Cc2c[nH]c3ccccc23)C(=O)N[C@@H](CCCNC(=N)N)C(=O)N[C@@H](CCC(=O)O)C(=O)N[C@@H](CC(N)=O)C(=O)NCC(=O)NCCOCC(=O)N[C@H](CCCCN)C(N)=O)NC(=O)[C@H](CCC(N)=O)NC(=O)[C@H](Cc2c[nH]c3ccccc23)NC(=O)[C@H]([C@@H](C)O)NC(=O)[C@H](CCC(N)=O)NC1=O", "6.00 to 7.00"),
    ("COc1ccc(C[C@H](NC(=O)[C@@H](NC(=O)[C@H](CCC(N)=O)NC(=O)[C@H](Cc2c[nH]c3ccccc23)NC(=O)[C@@H](NC(=O)[C@H](CCC(N)=O)NC(=O)[C@@H](NC(=O)[C@@H]2CCC(=O)N2)C(C)(C)S)[C@@H](C)O)C(C)(C)S)C(=O)N[C@@H](Cc2ccc3ccccc3c2)C(=O)N[C@@](C)(CCCCN)C(=O)N[C@@H](CCCCNC(C)=O)C(=O)N[C@@H](CC(N)=O)C(=O)NCC(N)=O)cc1", "7.00 to 7.60"),
    ("CC(C)[C@H](NC(=O)[C@H](Cc1c[nH]c2ccccc12)NC(=O)[C@H](CC(=O)O)NC(=O)[C@H](C)NC(=O)[C@@H](N)CS)C(=O)N[C@@H](CS)C(=O)N[C@@H](Cc1ccc(O)cc1)C(=O)N[C@@H](Cc1c[nH]c2ccccc12)C(=O)N[C@@H](Cc1cnc[nH]1)C(=O)N[C@H](C(=O)N[C@@H](Cc1ccccc1)C(=O)NCC(N)=O)[C@@H](C)O", "6.00 to 6.60"),
]

====

# ASSAY COMMENT: Half life in simulated intestinal fluid at 20 uM by LC-MS/MS analysis
# Assay type: ADME
Each entry below carries its reported half-life at 20 µM.
READOUT KIND: half-life at 20 µM

# SMILES STR, VAL
data = [
    ("COc1ccc(C[C@H](NC(=O)[C@@H]2CSCC[C@H](NC(=O)[C@@H](CCCCN)NC(C)=O)C(=O)N[C@@H](CCC(N)=O)C(=O)N[C@@H]([C@@H](C)O)C(=O)N[C@@H](Cc3c[nH]c4ccccc34)C(=O)N[C@@H](CCC(N)=O)C(=O)N2)C(=O)N[C@@H](Cc2ccc3ccccc3c2)C(=O)N[C@@](C)(CC(C)C)C(=O)N[C@@H](CCC(=O)O)C(=O)N[C@@H](CC(N)=O)C(=O)NCC(N)=O)cc1", "1 to 2 h"),
    ("CC(=O)N[C@H](C(=O)N[C@@H](CCC(N)=O)C(=O)N[C@H](C(=O)N[C@@H](Cc1c[nH]c2ccccc12)C(=O)N[C@@H](CCC(N)=O)C(=O)N[C@H](C(=O)N[C@@H](Cc1ccc(OCCN)cc1)C(=O)N[C@@H](Cc1ccc2ccccc2c1)C(=O)N[C@@](C)(CC(C)C)C(=O)N[C@@H](CCC(N)=O)C(=O)N[C@@H](CC(N)=O)C(=O)N[C@@H](CC(N)=O)C(N)=O)C(C)(C)S)[C@@H](C)O)C(C)(C)S", "> 6 h"),
    ("CC(=O)NCCCC[C@H](NC(=O)[C@](C)(CC(C)C)NC(=O)[C@H](Cc1ccc2ccccc2c1)NC(=O)[C@H](Cc1ccc(C(N)=O)cc1)NC(=O)[C@@H](NC(=O)[C@H](CCC(N)=O)NC(=O)[C@H](Cc1c[nH]c2ccccc12)NC(=O)[C@@H](NC(=O)[C@H](CC(N)=O)NC(=O)[C@@H](NC(C)=O)C(C)(C)S)[C@@H](C)O)C(C)(C)S)C(=O)N[C@@H](CC(N)=O)C(=O)N[C@@H](CC(N)=O)C(N)=O", "> 6 h"),
]

====

# ASSAY COMMENT: Inhibition of interleukin-23 binding to rat interleukin-23 receptor incubated for 2 hrs by competitive binding ELISA
pIC50: −log10 of the molar value. Where a SMILES comes first, the peptide text is derived from it.

# COMPOUND, pIC50
rows = [
    ("COc1ccc(C[C@H](NC(=O)[C@@H](NC(=O)[C@H](CCC(N)=O)NC(=O)[C@H](Cc2c[nH]c3ccccc23)NC(=O)[C@@H](NC(=O)[C@H](CCC(N)=O)NC(=O)[C@@H](NC(C)=O)C(C)(C)S)[C@@H](C)O)C(C)(C)S)C(=O)N[C@@H](Cc2cccc3ccccc23)C(=O)N[C@@](C)(CCCCN)C(=O)N[C@@H](CCCCNC(C)=O)C(=O)N[C@@H](CC(N)=O)C(=O)NCC(N)=O)cc1", "6.00 to 7.00"),
    ("COc1ccc(C[C@H](NC(=O)[C@@H](NC(=O)[C@H](CCC(N)=O)NC(=O)[C@H](Cc2c[nH]c3ccccc23)NC(=O)[C@@H](NC(=O)[C@H](CCC(N)=O)NC(=O)[C@@H](NCN2C(=O)COCC2=O)C(C)(C)S)[C@@H](C)O)C(C)(C)S)C(=O)N[C@@H](Cc2ccc3ccccc3c2)C(=O)N[C@@](C)(CCCCN)C(=O)N[C@@H](CCCCNC(C)=O)C(=O)N[C@@H](CC(N)=O)C(=O)NCC(N)=O)cc1", "7.00 to 7.60"),
    ("COc1ccc(C[C@H](NC(=O)[C@@H]2CSCC[C@H](NC(C)=O)C(=O)N[C@@H](CCC(N)=O)C(=O)N[C@@H]([C@@H](C)O)C(=O)N[C@@H](Cc3c[nH]c4ccccc34)C(=O)N[C@@H](CCC(N)=O)C(=O)N2)C(=O)N[C@@H](Cc2c[nH]c3ccccc23)C(=O)N[C@@](C)(CCCCN)C(=O)N[C@@H](CCC(=O)O)C(=O)N[C@@H](CC(N)=O)C(=O)NCC(N)=O)cc1", "7.00 to 7.60"),
    ("N=C(N)NCCC[C@H](NC(=O)[C@@H](N)CS)C(=O)N[C@@H](CC(=O)O)C(=O)N[C@@H](Cc1c[nH]c2ccccc12)C(=O)N[C@@H](CCC(N)=O)C(=O)N[C@@H](CS)C(=O)N[C@@H](Cc1ccc(O)cc1)C(=O)N[C@@H](Cc1c[nH]c2ccccc12)C(=O)N[C@@H](Cc1cnc[nH]1)C(=O)N[C@@H](CCCCN)C(=O)N[C@@H](Cc1ccccc1)C(=O)NCC(N)=O (H-CRDWQCYWHKFG-NH2)", "6.00 to 6.60"),
    ("CC(=O)NCCCC[C@H](NC(=O)[C@@](C)(NC(=O)[C@H](Cc1ccc2ccccc2c1)NC(=O)[C@H](Cc1ccc(C(N)=O)cc1)NC(=O)[C@@H](NC(=O)[C@H](CCC(N)=O)NC(=O)[C@H](Cc1c[nH]c2ccccc12)NC(=O)[C@@H](NC(=O)[C@H](CCC(N)=O)NC(=O)[C@@H](NC(C)=O)C(C)(C)S)[C@@H](C)O)C(C)(C)S)C(C)C)C(=O)N[C@@H](CC(N)=O)C(=O)N[C@@H](CC(N)=O)C(N)=O", "7.60 to 8.00"),
]

====

# TARGET OR TEST SYSTEM: UniProt:Q5VWK5
# Sequence (Q5VWK5 whole entry): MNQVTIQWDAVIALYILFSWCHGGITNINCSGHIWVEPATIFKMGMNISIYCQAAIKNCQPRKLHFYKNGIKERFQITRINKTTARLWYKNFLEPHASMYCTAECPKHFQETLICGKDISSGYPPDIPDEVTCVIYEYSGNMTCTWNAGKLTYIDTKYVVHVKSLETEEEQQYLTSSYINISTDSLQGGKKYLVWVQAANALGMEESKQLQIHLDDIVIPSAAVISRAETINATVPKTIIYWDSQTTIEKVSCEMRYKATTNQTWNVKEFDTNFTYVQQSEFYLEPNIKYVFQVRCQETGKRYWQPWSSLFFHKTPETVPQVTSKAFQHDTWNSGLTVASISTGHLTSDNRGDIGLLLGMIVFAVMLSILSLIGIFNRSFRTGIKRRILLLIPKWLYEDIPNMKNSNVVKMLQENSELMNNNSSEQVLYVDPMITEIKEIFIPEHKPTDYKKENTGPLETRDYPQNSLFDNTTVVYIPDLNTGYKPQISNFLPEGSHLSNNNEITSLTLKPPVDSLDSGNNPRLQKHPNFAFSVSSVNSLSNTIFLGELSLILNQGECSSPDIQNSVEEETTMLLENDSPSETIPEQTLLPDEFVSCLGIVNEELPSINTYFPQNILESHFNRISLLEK
# ASSAY COMMENT: Inhibition of interleukin-23 binding to human interleukin-23 receptor incubated for 2 hrs by competitive binding ELISA
pIC50: −log10 of the molar value.

# SMILES STR, pIC50
rows = [
    ("COc1ccc(C[C@H](NC(=O)[C@@H]2CSCC[C@H](NC(C)=O)C(=O)N[C@@H](CCC(N)=O)C(=O)N[C@@H]([C@@H](C)O)C(=O)N[C@@H](Cc3c[nH]c4ccccc34)C(=O)N[C@@H](CCC(N)=O)C(=O)N2)C(=O)N[C@@H](Cc2ccc3ccccc3c2)C(=O)N[C@@](C)(CCCN)C(=O)N[C@@H](CCC(=O)O)C(=O)N[C@@H](CC(N)=O)C(=O)NCC(N)=O)cc1", "7.60 to 8.00"),
    ("CC(=O)N[C@@H](CS)C(=O)N[C@@H](CCC(N)=O)C(=O)N[C@H](C(=O)N[C@@H](Cc1c[nH]c2ccccc12)C(=O)N[C@@H](CCC(N)=O)C(=O)N[C@@H](CS)C(=O)N[C@@H](Cc1ccc(O)cc1)C(=O)N[C@@H](Cc1c[nH]c2ccccc12)C(=O)N[C@@H](CCCNC(=N)N)C(=O)N[C@H](C(=O)N[C@@H](CC(N)=O)C(=O)NCC(=O)NCCOCC(=O)N[C@H](CCCCN)C(N)=O)[C@@H](C)O)[C@@H](C)O", "> 6.30"),
    ("CC(=O)N[C@@H](CS)C(=O)N[C@@H](CCC(N)=O)C(=O)N[C@H](C(=O)N[C@@H](Cc1c[nH]c2ccccc12)C(=O)N[C@@H](CCC(N)=O)C(=O)N[C@@H](CS)C(=O)N[C@@H](Cc1ccc(O)cc1)C(=O)N[C@@H](Cc1c[nH]c2ccccc12)C(=O)N[C@@H](CCCNC(=N)N)C(=O)N(C)[C@@H](CCCNC(=N)N)C(=O)N[C@@H](CC(N)=O)C(=O)NCC(=O)NCCOCC(=O)N[C@H](CCCCN)C(N)=O)[C@@H](C)O", "< 6.00"),
    ("CC(=O)N[C@H]1CCSC[C@@H](C(=O)N[C@@H](Cc2ccc(Cl)c(Cl)c2)C(=O)N[C@@H](Cc2ccc3ccccc3c2)C(=O)NC(C)(C)C(=O)N[C@@H](CCC(=O)O)C(=O)N[C@@H](CC(N)=O)C(=O)NCC(N)=O)NC(=O)[C@H](CCC(N)=O)NC(=O)[C@H](Cc2c[nH]c3ccccc23)NC(=O)[C@H]([C@@H](C)O)NC(=O)[C@H](CCC(N)=O)NC1=O", "6.00 to 7.00"),
    ("COc1ccc(C[C@H](NC(=O)[C@@H]2CSCC[C@H](NC(=O)[C@@H](CCCCN)NC(C)=O)C(=O)N[C@@H](CCC(N)=O)C(=O)N[C@@H]([C@@H](C)O)C(=O)N[C@@H](Cc3c[nH]c4ccccc34)C(=O)N[C@@H](CCC(N)=O)C(=O)N2)C(=O)N[C@@H](Cc2ccc3ccccc3c2)C(=O)N[C@@](C)(CC(C)C)C(=O)N[C@@H](CCC(=O)O)C(=O)N[C@@H](CC(N)=O)C(=O)NCC(N)=O)cc1", "> 8.00"),
]

Source: ChEMBL document CHEMBL4417631
